Tested on: MDA-MB-468 breast
Assay: NCI-60 one-dose screen, 48 h (100 = growth as untreated, 0 = no growth, -100 = all killed)
Details: 10 µM unless noted
Compounds without any hit were thinned out: in the full panel of roughly 83,000, 20% have a hit.
Class assignment keyed on growth, ranges zone 1 = under 40%, zone 2 = from 40% up to 90%, zone 3 = 90% and over

>>> classification("Nc1nc2c(ncn2[C@@H]2O[C@H](CS)[C@@H](O)[C@H]2O)c(=O)[nH]1")
"zone 3"
>>> classification("CCCCCC[C@@H](O)C/C=C\\CCCCCCCC(=O)OCCOC")
"zone 3"
>>> classification("COc1cccc(O)c1O")
"zone 2"
>>> classification("N#Cc1c(-c2ccc(Cl)cc2)nc(N/N=C/c2cccc(Br)c2)nc1N1CCOCC1")
"zone 2"
>>> classification("O=C1CCCN1c1cccc2cccnc12")
"zone 3"
>>> classification("CC1=C(C)C(=O)C(Nc2ccc3c(c2)OCCO3)=C(Br)C1=O")
"zone 1"
>>> classification("COc1ccc(-c2cc(-c3cc(OC)c(OC)c(OC)c3)c(C#N)c(=O)n2CCCCC(=O)O)cc1")
"zone 3"
>>> classification("Cc1ccc2oc(=O)cc(C3c4ccc([nH]4)C(c4cc(=O)oc5ccc(C)cc45)c4ccc([nH]4)C(c4cc(=O)oc5ccc(C)cc45)c4ccc([nH]4)C(c4cc(=O)oc5ccc(C)cc45)c4ccc3[nH]4)c2c1 (centres undefined)")
"zone 1"
>>> classification("COc1ccc(Sc2[nH]c(C=O)c3ccccc23)cc1")
"zone 1"
>>> classification("CCOC(=O)OCC(=O)[C@@]1(O)CC[C@H]2[C@@H]3CCC4=CC(=O)CC[C@]4(C)[C@H]3[C@@H](O)C[C@@]21C")
"zone 3"
>>> classification("NCCSC(c1ccccc1)(c1ccccc1)c1ccccc1")
"zone 1"
>>> classification("O=C1NC(=O)C(c2ccccc2)(c2ccccc2)N1Cc1cn(-c2c3ccccc3nc3ccccc23)nn1")
"zone 1"
>>> classification("Cc1ccc(S(=O)(=O)N(CC[C@@H]2C[C@H]2c2cc3ccccc3o2)S(=O)(=O)c2ccc(C)cc2)cc1")
"zone 2"
>>> classification("Cc1ccc(Cc2cnc(NC(=O)/C(C#N)=C/c3ccc(-c4ccc(Cl)cc4)o3)s2)cc1")
"zone 2"
>>> classification("COc1cccc(-c2nc(SCC(=O)Nc3ccc(C(=O)/C=C/c4ccc(OC)c(OC)c4)cc3)[nH]c(=O)c2C#N)c1")
"zone 2"
>>> classification("O=c1cc(Cl)[nH]c(=O)[nH]1")
"zone 3"
>>> classification("O=C(/C=C/C12c3ccccc3C(c3ccccc31)C1C(=O)NC(=O)C12)c1ccc(Cl)cc1 (centres undefined)")
"zone 1"
